Where do these numbers come from? They come from PubChem BioAssay (NCATS).

assay_summary: qHTS of pediatric cancer cell lines to identify multiple opportunities for drug repurposing: Primary screen for Rh18 cells (AID 1347102); further: nearly all actives have a fitted effect of over 65% in size
details: Rh18 rhabdomyosarcoma viability, CellTiter-Glo luminescence, 48 h; series mostly up to 46 µM
Inconclusive results are not listed. Activity calls are given as the source filed them. The call rests on the fitted dose curve; in most records, active means well fitted cell-killing curve with a large enough effect; inconclusive means small, poorly fitted or top-dose-only effect; inactive means flat fitted curve, though single readings scatter.
Labels: yes (1) (active), no (0) (inactive)

- compound: "CC(=O)c1ccc(S(=O)(=O)NC(=O)NC2CCCCC2)cc1"
  assigned_label: "no (0)"
- compound: "CC(C)(C)COc1ccc(-n2cc(C(=O)O)cn2)cc1C#N"
  assigned_label: "no (0)"
- compound: "CC(C)n1nc(-c2ccc3oc(N)nc3c2)c2c(N)ncnc21"
  assigned_label: "yes (1)"
- compound: "O=C1C(Cl)=C(NCCN2CCOCC2)C(=O)c2ncccc21"
  assigned_label: "yes (1)"
- compound: "CS(=O)c1ccc(-c2nc(-c3ccc(F)cc3)c(-c3ccncc3)[nH]2)cc1 (stereo unspecified)"
  assigned_label: "no (0)"
- compound: "CCC(=O)NC[C@H](Cc1ccc(OCCc2nc(-c3ccccc3)oc2C)cc1)NC(C)=CC(=O)c1ccc(C(F)(F)F)cc1"
  assigned_label: "no (0)"
- compound: "CCN(CC)C(=O)c1ccc(O)c(OC)c1"
  assigned_label: "no (0)"
- compound: "O=C1NC(=O)C(c2ccccc2)(c2ccccc2)N1"
  assigned_label: "no (0)"
- compound: "O=C(Nc1ccccc1Br)N[C@@H]1CCN(c2ccc(C(F)(F)F)cn2)C1"
  assigned_label: "no (0)"
- compound: "Cc1cnc(C(=O)O)c[n+]1[O-]"
  assigned_label: "no (0)"
- compound: "N[C@@]1(C(=O)O)CS(=O)(=O)[C@H]2[C@H](C(=O)O)[C@H]21"
  assigned_label: "no (0)"
